target: human CD22 (Homo sapiens); construct: Fc (human CD22-Fc fusion); purchased R&D Systems AV11968-050; experiment: SPR binding of synthetic Siglec ligands to human CD22 ectodomain (Biacore 8K+); settings: grade in words for the conjugatable Siglec ligand-linker
Reported Metric: Human Siglec-2 Binding Affinity

Below, 7 compounds whose answers are already recorded.
INSERT INTO results (compound, observed) VALUES
  ('O=C(CCOCCOCCn1cc(COCCOCCOCCOCCO)nn1)NCCCC[C@@H](NC(=O)CCCNC(=O)CCOCCOCCn1cc(COCCOCCOCCOCCO)nn1)C(=O)N[C@H](CCCCNC(=O)CCOCCOCCn1cc(COCCOCCOCCOCCO)nn1)C(=O)NCCOCCOCCOCCOCCC(=O)Oc1c(F)c(F)c(F)c(F)c1F [Cpd. No. 26534]', 'No Binding'),
  ('O=C(CCOCCOCCOCCOCCn1cc(COCCOCCOCCOCCO)nn1)Oc1c(F)c(F)c(F)c(F)c1F [Cpd. No. 26530]', 'No Binding'),
  ('CC(=O)N[C@H]1[C@H]([C@H](O)[C@H](O)CNC(=O)c2cccc(Oc3ccccc3)c2)O[C@@](OC[C@H]2O[C@@H](OCCc3cn(CCOCCOCCOCCOCCC(=O)Oc4c(F)c(F)c(F)c(F)c4F)nn3)[C@H](O)[C@@H](O)[C@H]2O)(C(=O)O)C[C@@H]1O [Cpd. No. 24906]', 'Strong'),
  ('O=C(CCOCCOCCn1cc(COCCOCCOCCOCCO)nn1)NCCCC[C@@H](NC(=O)CCCNC(=O)CCOCCOCCn1cc(COCCOCCOCCOCCO)nn1)C(=O)NCCOCCOCCOCCOCCC(=O)Oc1c(F)c(F)c(F)c(F)c1F [Cpd. No. 26532]', 'No Binding'),
  ('O=C(Cc1ccc(-c2ccccc2)cc1)NC[C@@H](O)[C@@H](O)[C@@H]1O[C@@](OCCOCCOCc2cn(CCOCCOCCOCCOCCC(=O)Oc3c(F)c(F)c(F)c(F)c3F)nn2)(C(=O)O)C[C@H](O)[C@H]1NC(=O)CO [Cpd. No. 26288]', 'Strong'),
  ('O=C(CO)N[C@H]1[C@H]([C@H](O)[C@H](O)CO)O[C@@](OCCOCCOCc2cn(CCOCCOCCOCCOCCC(=O)Oc3c(F)c(F)c(F)c(F)c3F)nn2)(C(=O)O)C[C@@H]1O [Cpd. No. 26614]', 'Weak'),
  ('CC(=O)N[C@H]1[C@H]([C@H](O)[C@H](O)CNC(=O)c2cccc(Oc3ccccc3)c2)O[C@@](OCCOCc2cn(CCOCCOCCC(=O)NCCCC[C@H](NC(=O)CCCNC(=O)CCOCCOCCn3cc(COCCO[C@]4(C(=O)O)C[C@H](O)[C@@H](NC(C)=O)[C@H]([C@H](O)[C@H](O)CNC(=O)c5cccc(Oc6ccccc6)c5)O4)nn3)C(=O)NCCOCCOCCOCCOCCC(=O)Oc3c(F)c(F)c(F)c(F)c3F)nn2)(C(=O)O)C[C@@H]1O [Cpd. No. 26289]', 'Strong');

Okay, next one:
Reported Human Siglec-2 Binding Affinity for O=C(CCOCCOCCn1cc(COCCOCCO[C@]2(C(=O)O)C[C@H](O)[C@@H](NC(=O)CO)[C@H]([C@H](O)[C@H](O)CO)O2)nn1)NCCCC[C@H](NC(=O)CCCNC(=O)CCOCCOCCn1cc(COCCOCCO[C@]2(C(=O)O)C[C@H](O)[C@@H](NC(=O)CO)[C@H]([C@H](O)[C@H](O)CO)O2)nn1)C(=O)NCCOCCOCCOCCOCCC(=O)Oc1c(F)c(F)c(F)c(F)c1F [Cpd. No. 26615] : what is it?
Weak

====

Biological target: human CD22 (Homo sapiens, UniProt P20273)
Construct: Fc (human CD22-Fc fusion); purchased R&D Systems AV11968-050
Sequence (P20273 20-687 limits assumed): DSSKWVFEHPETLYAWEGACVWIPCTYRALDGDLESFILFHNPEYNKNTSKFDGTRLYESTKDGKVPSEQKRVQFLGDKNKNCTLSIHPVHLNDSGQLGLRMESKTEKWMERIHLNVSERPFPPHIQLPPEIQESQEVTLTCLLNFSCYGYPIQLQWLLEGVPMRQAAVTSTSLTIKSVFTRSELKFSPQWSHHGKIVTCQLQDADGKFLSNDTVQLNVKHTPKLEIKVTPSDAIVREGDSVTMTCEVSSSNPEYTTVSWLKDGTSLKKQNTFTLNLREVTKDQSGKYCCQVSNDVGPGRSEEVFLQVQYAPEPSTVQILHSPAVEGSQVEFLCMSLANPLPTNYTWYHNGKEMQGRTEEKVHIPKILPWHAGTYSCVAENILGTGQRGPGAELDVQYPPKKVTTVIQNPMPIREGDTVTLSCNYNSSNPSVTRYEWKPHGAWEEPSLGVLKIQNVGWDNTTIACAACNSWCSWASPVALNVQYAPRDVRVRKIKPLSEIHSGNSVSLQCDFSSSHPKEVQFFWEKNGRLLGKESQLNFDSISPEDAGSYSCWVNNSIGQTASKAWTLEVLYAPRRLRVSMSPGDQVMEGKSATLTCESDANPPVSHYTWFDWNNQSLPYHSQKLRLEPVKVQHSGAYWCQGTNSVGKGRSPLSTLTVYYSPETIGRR
Experiment: SPR binding of synthetic Siglec ligands to human CD22 ectodomain (Biacore 8K+)
Conditions: grade in words for the conjugatable Siglec ligand-linker
Experimental: The following ligands were evaluated for mouse and human CD22 binding: 1) BPC-Neu5Gc PEG (Cpd. No. 26463), 2) BPC-Neu5Gc GAL (Cpd. No. 26339), 3) MPB-Neu5Ac PEG (Cpd. No. 26334), 4) MPB-Neu5Ac GAL (Cpd. No. 26409), 5) Neu5Gc PEG (Cpd. No. 26591). All tested compounds are alkyne-terminating precursors of PFP-terminating, conjugatable Siglec Linker structures used in conjugates in the following examples. […]
Reported Metric: Human Siglec-2 Binding Affinity

INSERT INTO results (structure_notation, observed) VALUES
  ('CC(=O)N[C@H]1[C@H]([C@H](O)[C@H](O)CNC(=O)c2cccc(Oc3ccccc3)c2)O[C@@](OCCOCCOCc2cn(CCOCCOCCOCCOCCC(=O)Oc3c(F)c(F)c(F)c(F)c3F)nn2)(C(=O)O)C[C@@H]1O', 'Strong'),
  ('O=C(CCOCCOCCn1cc(COCCOCCO[C@]2(C(=O)O)C[C@H](O)[C@@H](NC(=O)CO)[C@H]([C@H](O)[C@H](O)CNC(=O)Cc3ccc(-c4ccccc4)cc3)O2)nn1)NCCCC[C@H](NC(=O)CCCNC(=O)CCOCCOCCn1cc(COCCOCCO[C@]2(C(=O)O)C[C@H](O)[C@@H](NC(=O)CO)[C@H]([C@H](O)[C@H](O)CNC(=O)Cc3ccc(-c4ccccc4)cc3)O2)nn1)C(=O)NCCOCCOCCOCCOCCC(=O)Oc1c(F)c(F)c(F)c(F)c1F', 'Strong'),
  ('O=C(CCOCCOCCn1cc(COCCOCCO[C@]2(C(=O)O)C[C@H](O)[C@@H](NC(=O)CO)[C@H]([C@H](O)[C@H](O)CO)O2)nn1)NCCCC[C@@H](CN[C@@H](CCCCNC(=O)CCOCCOCCn1cc(COCCOCCO[C@]2(C(=O)O)C[C@H](O)[C@@H](NC(=O)CO)[C@H]([C@H](O)[C@H](O)CO)O2)nn1)C(=O)NCCOCCOCCOCCOCCC(=O)Oc1c(F)c(F)c(F)c(F)c1F)NC(=O)CCCNCCCOCCOCCn1cc(COCCOCCO[C@]2(C(=O)O)C[C@H](O)[C@@H](NC(=O)CO)[C@H]([C@H](O)[C@H](O)CO)O2)nn1', 'Weak'),
  ('O=C(Cc1ccc(-c2ccccc2)cc1)NC[C@@H](O)[C@@H](O)[C@@H]1O[C@@](OC[C@H]2O[C@@H](OCCc3cn(CCOCCOCCOCCOCCC(=O)Oc4c(F)c(F)c(F)c(F)c4F)nn3)[C@H](O)[C@@H](O)[C@H]2O)(C(=O)O)C[C@H](O)[C@H]1NC(=O)CO', 'Strong');

====

molecular target: human CD22 (Homo sapiens, UniProt P20273); construct: Fc (human CD22-Fc fusion); purchased R&D Systems AV11968-050; assay: SPR binding of synthetic Siglec ligands to human CD22 ectodomain (Biacore 8K+); conditions: SPR; alkyne-terminating precursors of the PFP linkers; read-out: Human Siglec-2 Binding Affinity
Reported Metric: Kd (µM)

INSERT INTO measurements (structure_notation, tested_system, reported_metric, observed) VALUES
  ('C#CCCO[C@@H]1O[C@H](CO[C@]2(C(=O)O)C[C@H](O)[C@@H](NC(C)=O)[C@H]([C@H](O)[C@H](O)CNC(=O)c3cccc(Oc4ccccc4)c3)O2)[C@H](O)[C@H](O)[C@H]1O', 'human CD22 (Homo sapiens, UniProt P20273)', 'Kd', 1),
  ('C#CCCO[C@@H]1O[C@H](CO[C@]2(C(=O)O)C[C@H](O)[C@@H](NC(=O)CO)[C@H]([C@H](O)[C@H](O)CNC(=O)Cc3ccc(-c4ccccc4)cc3)O2)[C@H](O)[C@H](O)[C@H]1O', 'human CD22 (Homo sapiens, UniProt P20273)', 'Kd', 2.5),
  ('C#CCOCCOCCO[C@]1(C(=O)O)C[C@H](O)[C@@H](NC(C)=O)[C@H]([C@H](O)[C@H](O)CNC(=O)c2cccc(Oc3ccccc3)c2)O1', 'human CD22 (Homo sapiens, UniProt P20273)', 'Kd', 0.93),
  ('C#CCOCCOCCO[C@]1(C(=O)O)C[C@H](O)[C@@H](NC(=O)CO)[C@H]([C@H](O)[C@H](O)CNC(=O)Cc2ccc(-c3ccccc3)cc2)O1', 'human CD22 (Homo sapiens, UniProt P20273)', 'Kd', 1.3);

====

target: mouse CD22 (Mus musculus); construct: synthetic Siglec ligands for recombinant human and mouse CD22 ectodomains; assay: SPR binding of synthetic Siglec ligands to mouse CD22 ectodomain (Biacore 8K+); settings: SPR; alkyne-terminating precursors of the PFP linkers; read-out: Mouse Siglec-2 Binding Affinity
Sequence (P35329 22-708 limits assumed): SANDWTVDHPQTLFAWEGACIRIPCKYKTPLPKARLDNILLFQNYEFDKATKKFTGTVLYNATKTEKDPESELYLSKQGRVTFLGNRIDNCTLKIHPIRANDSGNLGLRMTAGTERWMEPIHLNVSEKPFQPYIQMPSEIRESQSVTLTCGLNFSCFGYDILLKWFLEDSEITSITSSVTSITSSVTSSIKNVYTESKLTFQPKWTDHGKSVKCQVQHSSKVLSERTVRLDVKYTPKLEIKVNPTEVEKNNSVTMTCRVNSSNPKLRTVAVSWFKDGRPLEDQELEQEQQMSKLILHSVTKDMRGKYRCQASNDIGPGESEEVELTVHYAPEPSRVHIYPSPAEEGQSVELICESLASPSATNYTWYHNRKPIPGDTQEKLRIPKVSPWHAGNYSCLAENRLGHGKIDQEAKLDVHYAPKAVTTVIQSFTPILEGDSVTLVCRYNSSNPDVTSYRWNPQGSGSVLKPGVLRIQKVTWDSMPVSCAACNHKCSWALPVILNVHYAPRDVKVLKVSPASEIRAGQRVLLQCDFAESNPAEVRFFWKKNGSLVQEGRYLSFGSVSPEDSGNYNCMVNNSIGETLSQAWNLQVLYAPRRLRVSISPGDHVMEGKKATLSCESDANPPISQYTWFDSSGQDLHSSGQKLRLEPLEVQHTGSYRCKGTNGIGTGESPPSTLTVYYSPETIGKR
pKd: −log10 of the molar value.
Reported Metric: pKd

INSERT INTO assay_data (structure_notation, observed) VALUES
  ('C#CCOCCOCCO[C@]1(C(=O)O)C[C@H](O)[C@@H](NC(C)=O)[C@H]([C@H](O)[C@H](O)CNC(=O)c2cccc(Oc3ccccc3)c2)O1', '< 4.00'),
  ('C#CCOCCOCCO[C@]1(C(=O)O)C[C@H](O)[C@@H](NC(=O)CO)[C@H]([C@H](O)[C@H](O)CO)O1', '< 3.00');

Give the reported pKd for C#CCCO[C@@H]1O[C@H](CO[C@]2(C(=O)O)C[C@H](O)[C@@H](NC(C)=O)[C@H]([C@H](O)[C@H](O)CNC(=O)c3cccc(Oc4ccccc4)c3)O2)[C@H](O)[C@H](O)[C@H]1O (system: mouse CD22 (Mus musculus)).
< 4.00

# credit: patent US20240238422A1
